Molecular target: BRD4 (Homo sapiens)
Assay: BRD4 degradation assay (Western-blot / Simple Western) in 22RV1
Conditions: 22RV1 cells, target content as percentage of control (DMSO = 100%)
measurement-kind: BRD4 degradation of 22RV1 (200 nM 5 h)

Some entries whose results are on file:
{"columns": ["compound", "BRD4 degradation of 22RV1 (200 nM 5 h)"],
 "data": [
  ["Cc1sc2c(c1C)C(c1ccc(C#CCN)cc1)=N[C@@H](Cc1nccs1)c1nnc(C)n1-2", "B (20%<B<50%)"],
  ["Cc1sc2c(c1C)C(c1ccc(C#CCNO)cc1)=N[C@@H](Cc1nccs1)c1nnc(C)n1-2.Cl", "C (50%<C<80)"],
  ["Cc1sc2c(c1C)C(c1ccc(/C=C/CNO)cc1)=N[C@@H](CC(=O)OC1(C)CC1)c1nnc(C)n1-2", "A (A<20%)"],
  ["Cc1sc2c(c1C)C(c1ccc(/C=C/CN)cc1)=N[C@@H](CC(=O)OC1(C)CC1)c1nnc(C)n1-2", "B (20%<B<50%)"],
  ["Cc1sc2c(c1C)C(c1ccc(C3CC3/C=N/O)cc1)=N[C@@H](CC(=O)OC(C)(C)C)c1nnc(C)n1-2 (stereo partly drawn)", "C (50%<C<80)"]
]}

Please state BRD4 degradation of 22RV1 (200 nM 5 h) for every compound in the list that follows.
1. COc1ccc2c(c1)C(c1ccc(/C=C/CN)cc1)=N[C@@H](CC(=O)OC(C)(C)C)c1nnc(C)n1-2
2. Cc1sc2c(c1C)C(c1ccc(/C=C/C=N\O)cc1)=N[C@@H](CC(=O)OC(C)(C)C)c1nnc(C)n1-2
3. Cc1sc2c(c1C)C(c1ccc(C#CCNC(=N)NO)cc1)=N[C@@H](CC(=O)OC(C)(C)C)c1nnc(C)n1-2
4. CONC/C=C/c1ccc(C2=N[C@@H](CC(=O)OC(C)(C)C)c3nnc(C)n3-c3sc(C)c(C)c32)cc1
5. COc1ccc2c(c1)C(c1ccc(/C=C/CNO)cc1)=N[C@@H](CC(=O)OC(C)(C)C)c1nnc(C)n1-2
6. Cc1sc2c(c1C)C(c1ccc(/C=C/CNO)cc1)=N[C@@H](CC(=O)OC(C)(C)C)c1nnc(C)n1-2
7. Cc1sc2c(c1C)C(c1ccc(C#CCN)cc1)=N[C@@H](Cc1nnc(C(C)C)o1)c1nnc(C)n1-2
8. COc1ccc2c(c1)C(c1ccc(C#CCNO)cc1)=N[C@@H](CC(=O)OC(C)(C)C)c1nnc(C)n1-2

Result block:
B (20%<B<50%)
D (80%<D<100%)
D (80%<D<100%)
B (20%<B<50%)
A (A<20%)
A (A<20%)
C (50%<C<80)
B (20%<B<50%)

Hi! Can you tell me BRD4 degradation of 22RV1 (200 nM 5 h) for each of these compounds?
1. COc1ccc2c(c1)C(c1ccc(C#CCNO)cc1)=N[C@@H](Cc1nccs1)c1nnc(C)n1-2.Cl
2. CNC(=O)C#Cc1ccc(C2=N[C@@H](CC(=O)OC(C)(C)C)c3nnc(C)n3-c3sc(C)c(C)c32)cc1

Result block:
C (50%<C<80)
D (80%<D<100%)
